Cited source: BindingDB's records for doi:10.1021/acschembio.5b00817

# Target Desc: Signal transducer and activator of transcription 5B (Homo sapiens, UniProt P51692)
# Assay Overview: Fluorescence Polarization Assay
Property: Ki (nM)
One number for each entry, in nM.

Ask: Look at this compound and give its reported Ki. `CC(C)CCCCCCC(=O)NCc1ccc(OP(=O)(O)O)c(OP(=O)(O)O)c1`
Reply: 340

* * *

Sequence of the target: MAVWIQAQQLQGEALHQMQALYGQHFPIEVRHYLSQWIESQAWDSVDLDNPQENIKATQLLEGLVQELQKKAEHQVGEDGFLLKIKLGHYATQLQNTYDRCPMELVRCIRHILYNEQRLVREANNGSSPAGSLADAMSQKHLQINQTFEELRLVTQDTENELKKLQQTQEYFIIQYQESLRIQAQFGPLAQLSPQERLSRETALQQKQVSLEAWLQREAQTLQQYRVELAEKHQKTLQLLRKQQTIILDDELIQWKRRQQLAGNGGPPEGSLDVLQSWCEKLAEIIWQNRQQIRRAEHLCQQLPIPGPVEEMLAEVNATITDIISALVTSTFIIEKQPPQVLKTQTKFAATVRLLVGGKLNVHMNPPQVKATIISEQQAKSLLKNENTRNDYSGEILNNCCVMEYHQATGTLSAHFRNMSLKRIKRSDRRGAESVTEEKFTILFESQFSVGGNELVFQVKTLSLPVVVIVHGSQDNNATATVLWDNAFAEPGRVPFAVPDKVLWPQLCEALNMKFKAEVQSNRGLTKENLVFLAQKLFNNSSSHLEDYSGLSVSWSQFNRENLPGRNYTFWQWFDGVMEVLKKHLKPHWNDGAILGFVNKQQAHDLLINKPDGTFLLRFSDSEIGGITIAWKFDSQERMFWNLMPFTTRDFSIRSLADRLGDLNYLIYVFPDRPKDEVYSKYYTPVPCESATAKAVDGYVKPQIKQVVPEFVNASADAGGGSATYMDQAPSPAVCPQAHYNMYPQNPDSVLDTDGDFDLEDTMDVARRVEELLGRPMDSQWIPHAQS
Property: IC50 (µM)
Answers are plain numbers, in µM.

Ask: Look at this compound and give its reported IC50. `CCCCCCCCC(=O)NCc1ccc(OP(=O)(O)O)c(OC)c1`
Reply: 196

* * *

# Target Desc: Signal transducer and activator of transcription 5A (Homo sapiens, UniProt P42229)
Exercise: state measured IC50 for each of the molecules provided.
Give bare numbers, in µM.

Record IC50 for all entries; do not skip any.
1. CCCCCCCCC(=O)NCc1ccc(OP(=O)(O)O)c(OP(=O)(O)O)c1
2. CC(C)CCCCCCC(=O)NCc1ccc(OP(=O)(O)O)c(OP(=O)(O)O)c1

Reply:
[24.9, 26.4]

* * *

Exercise: state measured Ki for each of the compounds provided.
Target protein (sequence): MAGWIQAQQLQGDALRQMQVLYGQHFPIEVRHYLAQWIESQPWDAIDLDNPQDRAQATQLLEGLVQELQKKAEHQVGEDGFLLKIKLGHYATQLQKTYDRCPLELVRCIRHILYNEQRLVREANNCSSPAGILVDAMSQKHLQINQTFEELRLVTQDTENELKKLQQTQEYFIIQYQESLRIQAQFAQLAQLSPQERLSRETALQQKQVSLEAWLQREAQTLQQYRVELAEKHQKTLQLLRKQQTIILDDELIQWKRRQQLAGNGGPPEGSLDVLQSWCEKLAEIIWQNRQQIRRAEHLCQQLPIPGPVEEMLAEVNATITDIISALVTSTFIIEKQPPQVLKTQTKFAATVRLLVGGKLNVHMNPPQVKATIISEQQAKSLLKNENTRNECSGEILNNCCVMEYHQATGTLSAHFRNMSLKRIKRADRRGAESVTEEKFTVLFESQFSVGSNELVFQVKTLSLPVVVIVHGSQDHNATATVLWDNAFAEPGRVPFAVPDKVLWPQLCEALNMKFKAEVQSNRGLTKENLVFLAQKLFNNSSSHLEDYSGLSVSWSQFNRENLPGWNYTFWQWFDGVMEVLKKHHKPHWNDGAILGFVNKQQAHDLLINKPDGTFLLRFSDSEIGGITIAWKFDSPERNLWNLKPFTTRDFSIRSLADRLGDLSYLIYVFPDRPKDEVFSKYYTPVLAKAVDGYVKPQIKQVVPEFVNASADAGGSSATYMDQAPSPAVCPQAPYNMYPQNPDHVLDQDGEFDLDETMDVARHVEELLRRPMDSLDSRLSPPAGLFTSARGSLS
Give bare numbers, in µM.

Cpd Smiles | Unit Text | Ki
COc1cc(CNC(=O)CCCCCCC(C)C)ccc1OP(=O)(O)O | µM | 75

Here is another compound to look at.
Ask: Look at this compound and give its reported Ki. `CCCCCCCCC(=O)NCc1ccc(OP(=O)(O)O)c(OC)c1`
Reply: 49
